Hello, the source for this data is patent US20130259876A1, in case you need it.

Target: HLA-B*2705 expressed on C1R-neo cells (human, UniProt P01889 25-362; P61769 21-119)
Test: ECL cell binding, C1R-neo B*2705 cells, pH 6.0
valueKind: max RLU (RLU)
Your answer is read as RLU, so omit the unit and give the number.

Example entries and their recorded answers appear below.
H4H2499N7 (antibody, V domains shown) VH: QVQLVESGGGLVKPGGSLRLSCAASGFTFSDYYMSWIRQAPGKGLEWVSYISTSGSTIYYPDSVKGRFTISRDNAKNSLNLQMNSLRAEDTAVYYCLLHYYYGMDVWGQGTTVTVSS VL: EIVLTQSPATLSLSPGERAPLSCRASQHVHSHLAWYQQKPGQPPRLLIYDASNRATGIPARFSGSGSGTDFTLTISSLEPEDFAVYYCQQRSNWPWTFGQGTKVEIK	18100
H4H2499N13 (antibody, V domains shown) VH: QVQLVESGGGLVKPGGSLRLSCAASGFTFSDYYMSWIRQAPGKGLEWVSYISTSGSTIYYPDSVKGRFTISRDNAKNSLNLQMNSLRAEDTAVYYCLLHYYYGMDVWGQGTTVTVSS VL: EIVLTQSPATLSLSPGERAPLSCRASQSVSSYLAWYQQKPGQPPRLLIYDASNRATGIPARFSGSGSGTDFTLTISSLEPEDFAVYYCQHRSHWPWTFGQGTKVEIK	8120

*Q* Request the reported max RLU associated with H4H2499N19 (antibody, V domains shown) VH: QVQLVESGGGLVKPGGSLRLSCAASGFTFSDYYMSWIRQAPGKGLEWVSYISTSGSTIYYPDSVKGRFTISRDNAKNSLNLQMNSLRAEDTAVYYCLHHYYYGHDHWGQGTTVTVSS VL: EIVLTQSPATLSLSPGERAPLSCRASQSVSSYLAWYQQKPGQPPRLLIYDASNRATGIPARFSGSGSGTDFTLTISSLEPEDFAVYYCQQRSNWPWTFGQGTKVEIK
*A* 7870
